assay: MELAS cybrid and Rieske KO viability enhancers – cell-based, MELAS cybrids, Rieske KO mouse fibroblasts, CellTiter-Glo, primary screen (AID 1508586); conditions: Rieske KO mouse fibroblast survival, low glucose, CellTiter-Glo 72 h;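 further: z relative to plate mean and SD of compound and empty wells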
READOUT_LABEL: z-score
Could you keep your reply to the number by itself?

Exercise: Quick check: z-score of O=C(C=CC=Cc1ccc2c(c1)OCO2)N1CCCCC1 ?
Solution: 0.823

Exercise: # query: z-score of entry CCc1cc2c(cc1CC)CC(NCC(O)c1ccc(O)c3[nH]c(=O)ccc13)C2 (stereo not drawn)
Solution: -0.118

Exercise: Which z-score reading was recorded for the molecule Cc1cc(-c2cc3c(n(C)c2=O)CCN(Cc2ccc(Sc4nncn4C)o2)C3)ccc1F ?
Solution: -0.369

Exercise: Which z-score is listed for Cc1[nH]c(C=C2C(=O)Nc3ccc(S(=O)(=O)N(C)c4cccc(Cl)c4)cc32)c(C)c1C(=O)N1CCN(C)CC1 ?
Solution: -1.1

Exercise: Give the measured z-score of CCC(CC)CNc1cc(C(=O)NCCN(C)C)cc(S(=O)(=O)Nc2ccc(OC)cc2)c1 .
Solution: 0.972

Exercise: Return reported z-score; argument: NS(=O)(=O)c1ccc(C(=O)NCCn2cccn2)cc1
Solution: -0.563

Exercise: For C/C(=C(/CCO)SSCC1CCCO1)N(C=O)Cc1cnc(C)nc1N (stereo not drawn) , what is its reported z-score?
Solution: 0.563

Exercise: Looking for the measured z-score of COc1cc(F)c(C(C)C)cc1-c1ccc(C(F)(F)F)cc1CN1C(=O)OC(c2cc(C(F)(F)F)cc(C(F)(F)F)c2)C1C (stereo not drawn) , can you help?
Solution: 0.372

====

test: growth inhibition, single agents and combos, ICB984, cell-based, cisplatin or BGB combos, synergistic combos for chromothripsis tumors (AID 1671451); details: ICB984 medulloblastoma cells, drug combinations, BGB IC40 combo, at 0.005 µM, stronger effect = higher value;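 further: cells exposed for 96 hours before readout; 0% = vehicle DMSO and 100% = killing by high DMSO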
READOUT_LABEL: inhibition (%)
Record the value in %, omitting the unit from your answer.

Exercise: Give the measured inhibition of NC(=S)NN=Cc1ncccc1N .
Solution: -38.2

Exercise: Return reported inhibition; argument: Cn1cc(-c2cnn3c(N)c(Br)c([C@H]4CCCNC4)nc23)cn1
Solution: -26.3

Exercise: Look up inhibition: COc1ccc(-c2nc(-c3cc(C(F)(F)F)cc(C(F)(F)F)c3)n(Cc3ccc(C(N)=O)cc3)c2-c2ccc(OC)cc2)cc1
Solution: -30.8

Exercise: Requested read-out: inhibition. Entry: C#CCC(CCCCCC)C(=O)O (stereo unspecified)
Solution: -16

Exercise: For COc1cccc2c1C(=O)c1c(O)c3c(c(O)c1C2=O)CC(O)(C(=O)CO)CC3OC1CC(N)C(OC2CCCCO2)C(C)O1 (stereo unspecified) , what is its reported inhibition?
Solution: -47.6

Exercise: inhibition for Cc1cc(C)c(Nc2ccnc(Nc3ccc(C#N)cc3)n2)c(C)c1 ?
Solution: -27.4

Exercise: Which inhibition is reported for this compound? C[C@H](NC(=O)c1ccccc1N=Cc1c(O)ccc2ccccc12)c1ccccc1
Solution: -1.06

Exercise: inhibition lookup needed for CC(C)OC(=O)[C@H](C)NP(=O)(OC[C@H]1O[C@@H](n2ccc(=O)[nH]c2=O)C(C)(F)[C@@H]1O)Oc1ccccc1 (stereo partly specified) , thanks.
Solution: -42.6

Exercise: Field request: inhibition | item: NC(=O)c1cccc2cn(-c3ccc(C4CCCNC4)cc3)nc12 (stereo unspecified)
Solution: -50.8

Exercise: GET /values?readout=inhibition&item= O=C(CCCCCCC(=O)NO)NO
Solution: -41.1

Exercise: Consider the compound N#Cc1ccc(OC2CCC(NC(=O)CCSc3nc4ccccc4c(=O)[nH]3)CC2)cc1 (stereo unspecified) and give its measured inhibition.
Solution: -8.75

Exercise: Which inhibition reading was recorded for the compound O=C(CCCCCCC(=O)Nc1ccc(I)cc1)NO ?
Solution: -21.6

Exercise: Reported inhibition, compound Cc1cc(C)cc(C(=O)NOCCCCCC(=O)NO)c1 : ____
Solution: -11.3

Exercise: Which inhibition reading was recorded for the compound O=C1N=c2ccccc2=C1c1c(O)[nH]c2ccccc12 ?
Solution: 12.6

Exercise: // returns reported inhibition for input CC1CNC(=O)NC1=O (stereo unspecified)
Solution: -36.3

Exercise: Report inhibition for COc1ccccc1S(=O)(=O)Nc1ccc2c(c1)CN(C)C(=O)N2 please.
Solution: -32.2
